molecular target: Hap1 (UniProt P0CE41); test: PBM E-score (8-mer binding enrichment) (E-score (-0.5 to 0.5)); higher = stronger / more preferred TF binding; conditions: protein concentration: 200 nM; construct: GST-DNA-binding domain
Sequence (P0CE41 whole entry, the tested form may be a part): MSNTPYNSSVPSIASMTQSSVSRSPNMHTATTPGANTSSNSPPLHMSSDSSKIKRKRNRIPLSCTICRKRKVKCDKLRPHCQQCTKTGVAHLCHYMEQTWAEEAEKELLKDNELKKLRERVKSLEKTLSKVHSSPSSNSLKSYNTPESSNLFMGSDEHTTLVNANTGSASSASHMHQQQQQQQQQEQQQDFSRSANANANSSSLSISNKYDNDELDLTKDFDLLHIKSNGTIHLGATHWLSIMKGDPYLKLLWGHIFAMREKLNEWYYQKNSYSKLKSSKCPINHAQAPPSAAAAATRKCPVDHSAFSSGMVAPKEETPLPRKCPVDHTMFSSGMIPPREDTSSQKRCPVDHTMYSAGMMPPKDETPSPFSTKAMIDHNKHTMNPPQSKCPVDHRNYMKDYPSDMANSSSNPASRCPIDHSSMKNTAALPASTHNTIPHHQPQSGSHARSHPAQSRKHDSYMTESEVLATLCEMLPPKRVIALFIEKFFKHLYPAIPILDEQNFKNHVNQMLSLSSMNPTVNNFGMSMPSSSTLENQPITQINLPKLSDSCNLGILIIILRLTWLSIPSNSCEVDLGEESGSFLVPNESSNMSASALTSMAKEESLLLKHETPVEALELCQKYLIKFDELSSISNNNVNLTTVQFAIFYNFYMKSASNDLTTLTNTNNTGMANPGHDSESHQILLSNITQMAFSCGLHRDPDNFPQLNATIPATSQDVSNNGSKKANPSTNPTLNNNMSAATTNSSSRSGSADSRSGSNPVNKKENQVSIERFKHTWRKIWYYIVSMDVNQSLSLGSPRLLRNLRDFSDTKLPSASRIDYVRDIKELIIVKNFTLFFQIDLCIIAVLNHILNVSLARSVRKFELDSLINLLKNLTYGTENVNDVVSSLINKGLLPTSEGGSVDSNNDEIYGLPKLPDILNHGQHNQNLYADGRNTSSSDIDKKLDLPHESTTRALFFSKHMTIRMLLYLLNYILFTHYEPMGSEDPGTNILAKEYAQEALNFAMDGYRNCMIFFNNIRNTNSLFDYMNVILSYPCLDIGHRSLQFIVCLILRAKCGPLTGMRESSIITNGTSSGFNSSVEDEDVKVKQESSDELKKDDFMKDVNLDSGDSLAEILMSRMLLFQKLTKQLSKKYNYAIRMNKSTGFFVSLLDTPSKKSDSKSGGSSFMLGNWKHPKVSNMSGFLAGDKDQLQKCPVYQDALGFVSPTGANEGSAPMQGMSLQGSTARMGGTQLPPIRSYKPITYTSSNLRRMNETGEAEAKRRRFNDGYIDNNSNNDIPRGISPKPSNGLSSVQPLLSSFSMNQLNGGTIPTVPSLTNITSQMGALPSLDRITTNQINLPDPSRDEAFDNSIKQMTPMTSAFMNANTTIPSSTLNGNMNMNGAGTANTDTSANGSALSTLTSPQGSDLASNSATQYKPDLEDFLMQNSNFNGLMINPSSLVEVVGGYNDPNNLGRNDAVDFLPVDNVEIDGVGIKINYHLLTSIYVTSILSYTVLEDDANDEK
The full ranking holds about 33,000 sequences; the median of “E-score (-0.5 to 0.5)” is about -0.053, and the highest 2% start at about 0.37. Shown is part of a subset that was picked to be rich in the highest values.
PBM E-score of 0.3 or higher: criterion met. Under 0.3: criterion not met.

A selection of reference data follows.
| monomer_sequence | tested_on | label |
| --- | --- | --- |
| CGACGGAG | Hap1 (UniProt P0CE41) | criterion not met |
| AGCCGGTC | Hap1 (UniProt P0CE41) | criterion not met |
| AGCCCCGA | Hap1 (UniProt P0CE41) | criterion met |

# ---- query sequence ----
Answer whether PBM E-score of `CTCTACAA` is greater than or equal to 0.3. criterion not met

Ref: the supplement of paper PMC3334620
